Source of measurements: the supplement of paper PMC7125110

B1: glmS ribozyme (parent)
chain: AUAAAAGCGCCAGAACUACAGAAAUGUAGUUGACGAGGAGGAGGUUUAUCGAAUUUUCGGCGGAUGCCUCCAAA

variants of: B1; assay: self-cleavage kobs at 640 uM GlcN6P; higher = faster cleavage; RNA array; conditions: with glucosamine-6-phosphate
Variants at the floor of the assay were thinned out.

[
  {
    "mutation": "C10U U45C C68A",
    "self-cleavage kobs at 640 uM GlcN6P": "< 1e-05 s⁻¹"
  },
  {
    "mutation": "G13A A64G",
    "self-cleavage kobs at 640 uM GlcN6P": "0.000113 s⁻¹"
  },
  {
    "mutation": "G7U G40A G59U",
    "self-cleavage kobs at 640 uM GlcN6P": "< 1e-05 s⁻¹"
  },
  {
    "mutation": "U47C A48U C70U",
    "self-cleavage kobs at 640 uM GlcN6P": "3.27e-05 s⁻¹"
  },
  {
    "mutation": "G32C G38C",
    "self-cleavage kobs at 640 uM GlcN6P": "< 1e-05 s⁻¹"
  },
  {
    "mutation": "C8U A15U U31G",
    "self-cleavage kobs at 640 uM GlcN6P": "< 1e-05 s⁻¹"
  },
  {
    "mutation": "G35C G40A",
    "self-cleavage kobs at 640 uM GlcN6P": "< 1e-05 s⁻¹"
  },
  {
    "mutation": "A36G G43A G59U",
    "self-cleavage kobs at 640 uM GlcN6P": "< 1e-05 s⁻¹"
  },
  {
    "mutation": "C11G C50A A52G",
    "self-cleavage kobs at 640 uM GlcN6P": "< 1e-05 s⁻¹"
  },
  {
    "mutation": "G38U G41A U47C",
    "self-cleavage kobs at 640 uM GlcN6P": "< 1e-05 s⁻¹"
  },
  {
    "mutation": "G41U C58G",
    "self-cleavage kobs at 640 uM GlcN6P": "< 1e-05 s⁻¹"
  },
  {
    "mutation": "G32U U54C",
    "self-cleavage kobs at 640 uM GlcN6P": "0.000126 s⁻¹"
  },
  {
    "mutation": "A12U U54C",
    "self-cleavage kobs at 640 uM GlcN6P": "0.0165 s⁻¹"
  },
  {
    "mutation": "C8U A12U G51U",
    "self-cleavage kobs at 640 uM GlcN6P": "< 1e-05 s⁻¹"
  },
  {
    "mutation": "G37A U49C",
    "self-cleavage kobs at 640 uM GlcN6P": "< 1e-05 s⁻¹"
  },
  {
    "mutation": "A36C U45C",
    "self-cleavage kobs at 640 uM GlcN6P": "< 1e-05 s⁻¹"
  },
  {
    "mutation": "A6C A42C C50A U54G G59C C61U",
    "self-cleavage kobs at 640 uM GlcN6P": "< 1e-05 s⁻¹"
  },
  {
    "mutation": "A6G A14C G38U",
    "self-cleavage kobs at 640 uM GlcN6P": "< 1e-05 s⁻¹"
  },
  {
    "mutation": "A42U G44A U65G",
    "self-cleavage kobs at 640 uM GlcN6P": "< 1e-05 s⁻¹"
  },
  {
    "mutation": "A12G C70A",
    "self-cleavage kobs at 640 uM GlcN6P": "4.35e-05 s⁻¹"
  },
  {
    "mutation": "A6G G43A C68A",
    "self-cleavage kobs at 640 uM GlcN6P": "< 1e-05 s⁻¹"
  },
  {
    "mutation": "U31A",
    "self-cleavage kobs at 640 uM GlcN6P": "0.00431 s⁻¹"
  },
  {
    "mutation": "G38C A48C",
    "self-cleavage kobs at 640 uM GlcN6P": "< 1e-05 s⁻¹"
  },
  {
    "mutation": "A14U G32C C50A C68G",
    "self-cleavage kobs at 640 uM GlcN6P": "0.000278 s⁻¹"
  },
  {
    "mutation": "C8A U31G C61A",
    "self-cleavage kobs at 640 uM GlcN6P": "< 1e-05 s⁻¹"
  },
  {
    "mutation": "G40U U55A C71A",
    "self-cleavage kobs at 640 uM GlcN6P": "0.00279 s⁻¹"
  },
  {
    "mutation": "U49G A53U",
    "self-cleavage kobs at 640 uM GlcN6P": "0.00014 s⁻¹"
  },
  {
    "mutation": "A36G A48G",
    "self-cleavage kobs at 640 uM GlcN6P": "< 1e-05 s⁻¹"
  },
  {
    "mutation": "A6G G9U G13C C34A",
    "self-cleavage kobs at 640 uM GlcN6P": "< 1e-05 s⁻¹"
  },
  {
    "mutation": "C16G G32U C61U",
    "self-cleavage kobs at 640 uM GlcN6P": "< 1e-05 s⁻¹"
  },
  {
    "mutation": "U30C C58U",
    "self-cleavage kobs at 640 uM GlcN6P": "< 1e-05 s⁻¹"
  },
  {
    "mutation": "C10G U45C U49A U54G C70G",
    "self-cleavage kobs at 640 uM GlcN6P": "< 1e-05 s⁻¹"
  },
  {
    "mutation": "A36C G41C",
    "self-cleavage kobs at 640 uM GlcN6P": "< 1e-05 s⁻¹"
  },
  {
    "mutation": "A33C G35A",
    "self-cleavage kobs at 640 uM GlcN6P": "< 1e-05 s⁻¹"
  },
  {
    "mutation": "A6U U31A G35U A42U G62U",
    "self-cleavage kobs at 640 uM GlcN6P": "< 1e-05 s⁻¹"
  },
  {
    "mutation": "C10G A12U U56G C71U",
    "self-cleavage kobs at 640 uM GlcN6P": "< 1e-05 s⁻¹"
  },
  {
    "mutation": "G41U U65A",
    "self-cleavage kobs at 640 uM GlcN6P": "8.03e-05 s⁻¹"
  },
  {
    "mutation": "U47C A52G G66A",
    "self-cleavage kobs at 640 uM GlcN6P": "5.64e-05 s⁻¹"
  },
  {
    "mutation": "G29A U31G",
    "self-cleavage kobs at 640 uM GlcN6P": "9.51e-05 s⁻¹"
  },
  {
    "mutation": "G60A C71U",
    "self-cleavage kobs at 640 uM GlcN6P": "< 1e-05 s⁻¹"
  },
  {
    "mutation": "U55A C70U",
    "self-cleavage kobs at 640 uM GlcN6P": "0.00644 s⁻¹"
  },
  {
    "mutation": "A48U U54C",
    "self-cleavage kobs at 640 uM GlcN6P": "5.32e-05 s⁻¹"
  },
  {
    "mutation": "G29C G41C C68G",
    "self-cleavage kobs at 640 uM GlcN6P": "< 1e-05 s⁻¹"
  },
  {
    "mutation": "U30G G59C",
    "self-cleavage kobs at 640 uM GlcN6P": "< 1e-05 s⁻¹"
  },
  {
    "mutation": "U31C C50G G59A C71G",
    "self-cleavage kobs at 640 uM GlcN6P": "7.63e-05 s⁻¹"
  },
  {
    "mutation": "A6G C50G C71G",
    "self-cleavage kobs at 640 uM GlcN6P": "0.000369 s⁻¹"
  }
]
